# TGI values compiled below
System: ACHN renal
Assay: NCI tumour cell line growth inhibition, 48 h

MOLECULE	TGI
O=C(CCc1nc(=S)[nH][nH]1)Nc1ccc(Cl)c(Cl)c1	> 100 µM
O=[N+]([O-])c1cccc(-c2csc(NNC3=NC/C(=C/c4ccc5c(c4)OCO5)S3)n2)c1	> 100 µM
CC[C@@H]1CC[C@@H]2[C@H](CC[C@]3(C)[C@@H](OC(C)=O)CC[C@@H]23)[C@H]1COC(C)=O	> 100 µM
O=c1ccc(-c2ccccc2)n[nH]1	> 100 µM
CC(=O)OC1CC(OC2C(O)CC(OC3C(O)CC(OC4CCC5(C)C(CCC6C5CC(O)C5(C)C(C7=CC(=O)OC7)CCC65O)C4)OC3C)OC2C)OC(C)C1OC1OC(CO)C(O)C(O)C1O (stereo not given)	0.146 µM
